Molecular target: Rad51 (Homo sapiens, UniProt Q06609)
Assay: DNA invasion by D-loop assay (strand exchange)
Assay type: biochemical
Assay Endpoint: IC50 (µM)
Dear colleague, please return just the value in µM, with no unit written.

Enquiry: Reported IC50, compound `O=C(Nc1ccc(/C=C/c2ccc(NC(=O)Oc3ccccc3)cc2S(=O)(=O)[O-])c(S(=O)(=O)[O-])c1)Oc1ccccc1.[Na+].[Na+]` : ____
Return: 2

* * *

Catalogue of compounds with associated pIC50
Target: Rad51 (Homo sapiens, UniProt Q06609)
Sequence (Q06609 1-339): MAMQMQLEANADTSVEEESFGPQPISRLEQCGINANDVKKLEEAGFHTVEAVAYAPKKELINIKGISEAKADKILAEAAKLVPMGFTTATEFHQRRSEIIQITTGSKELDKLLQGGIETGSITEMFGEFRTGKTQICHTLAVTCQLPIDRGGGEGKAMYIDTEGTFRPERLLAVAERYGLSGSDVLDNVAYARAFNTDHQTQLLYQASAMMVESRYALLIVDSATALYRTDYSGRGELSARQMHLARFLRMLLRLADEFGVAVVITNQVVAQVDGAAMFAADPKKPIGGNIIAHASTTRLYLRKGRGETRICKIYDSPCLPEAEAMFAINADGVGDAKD
Test: DNA invasion by D-loop assay (strand exchange)
Type: biochemical
Conditions: 0.5 μM Rad51, 1 μM 100-ssDNA, 37° C.; read-out: IC50 (RAD51 protein inhibition, D-loop formation)
Entry type: numeric. Quantity: pIC50, the -log10 of concentration in molar units.

# example entries with known answers
- O=S(=O)(O)c1cc(NS(=O)(=O)c2ccccc2)ccc1/C=C/c1ccc(NS(=O)(=O)c2ccccc2)cc1S(=O)(=O)O: 4.39
- COc1ccc(C(=O)Nc2ccc(/C=C/c3ccc(NC(=O)c4ccc(OC)cc4)cc3S(=O)(=O)O)c(S(=O)(=O)O)c2)cc1: 5.22
- Cc1ccc(S(=O)(=O)Nc2ccc(/C=C/c3ccc(NS(=O)(=O)c4ccc(C)cc4)cc3S(=O)(=O)O)c(S(=O)(=O)O)c2)cc1: 4.54

Enquiry: Write down the reported pIC50 of O=S(=O)(O)c1cc(N=C=S)ccc1C=Cc1ccc(N=C=S)cc1S(=O)(=O)O [DIDS, reference compound] , test system: Rad51 (Homo sapiens, UniProt Q06609).
Return: 6.00

Enquiry: `O=S(=O)([O-])c1cc(I)ccc1/C=C/c1ccc(I)cc1S(=O)(=O)[O-].[K+].[K+]` ?
Return: 4.47

Enquiry: `N#Cc1ccc(/C=C/c2ccc(C#N)cc2S(=O)(=O)[O-])c(S(=O)(=O)[O-])c1.[Na+].[Na+]` ?
Return: 5.30

Enquiry: `[N-]=[N+]=Nc1ccc(/C=C/c2ccc(N=[N+]=[N-])cc2S(=O)(=O)[O-])c(S(=O)(=O)[O-])c1.[Na+].[Na+]` ?
Return: 4.68
